Method Description: Stability of peptides in human plasma
Assay type: in vitro ADME
Measurement Context: human, plasma, pH 7.8
Where a SMILES comes first, the peptide text is derived from it. [ ]: non-standard residue; d: D form. ξ: configuration not given here. ξαMePhe(2,6-F2) = CC(N)(Cc1c(F)cccc1F)C(=O)O; ξαMePhe(2-F) = CC(N)(Cc1ccccc1F)C(=O)O; Cit = NC(=O)NCCC[C@H](N)C(=O)O; Nle = CCCC[C@H](N)C(=O)O; Orn = NCCC[C@H](N)C(=O)O; Aib = CC(C)(N)C(=O)O
Observable: metabolised at 24 h, 2 μM

Incoming: # metabolised at 24 h, 2 μM lookup, item CCCC[C@H](NC(=O)C(C)(Cc1ccccc1F)NC(=O)[C@H](CCC(N)=O)NC(=O)[C@@H](NC(=O)[C@H](CCC(=O)O)NC(=O)C(C)(C)NC(=O)[C@@H](NC(=O)C(C)(C)N)C(C)C)[C@@H](C)CC)C(=O)N[C@@H](Cc1c[nH]cn1)C(=O)N[C@@H](CCC(N)=O)C(=O)N[C@@H](CCCN)C(=O)NC(C)(C)C(=O)N[C@@H](CCCNC(N)=O)C(=O)NC(C)(Cc1c(F)cccc1F)C(N)=O (stereo partly shown) [Seq. ID. 290] (H-[Aib]V[Aib]EIQ[ξαMePhe(2-F)][Nle]HQ[Orn][Aib][Cit][ξαMePhe(2,6-F2)]-NH2)
Outgoing: 75%

====

Method Description: Stability of peptides in simulated gastric fluid (pH 1.5; HCl, NaCl and Pepsin)
Format: in vitro ADME
Measurement Context: simulated gastric fluid, 24 h, 2 μM, pH 1.5
Where a SMILES comes first, the peptide text is derived from it. [ ]: non-standard residue; d: D form. ξ: configuration not given here. ξαMePhe(2,6-F2) = CC(N)(Cc1c(F)cccc1F)C(=O)O; hArg = N=C(N)NCCCC[C@H](N)C(=O)O; Nle = CCCC[C@H](N)C(=O)O; Ac5c = NC1(C(=O)O)CCCC1
Observable: % degradation of peptides in 24 h when incubated with simulated gastric fluid (%)
Answer in %, number only, no unit symbol.

Incoming: # % degradation of peptides in 24 h when incubated with simulated gastric fluid lookup, item CCCC[C@H](NC(=O)C(C)(Cc1c(F)cccc1F)NC(=O)[C@H](CCC(N)=O)NC(=O)[C@@H](NC(=O)[C@H](CCC(=O)O)NC(=O)C1(NC(=O)[C@@H](NC(=O)C2(N)CCCC2)C(C)C)CCCC1)[C@@H](C)CC)C(=O)N[C@@H](Cc1c[nH]cn1)C(=O)N[C@@H](CCC(N)=O)C(=O)N[C@@H](CCCCNC(=N)N)C(=O)N[C@@H](C)C(=O)N[C@@H](CCCCN)C(=O)NC(C)(Cc1c(F)cccc1F)C(N)=O (stereo partly shown) [Seq. ID. 115] (H-[Ac5c]V[Ac5c]EIQ[ξαMePhe(2,6-F2)][Nle]HQ[hArg]AK[ξαMePhe(2,6-F2)]-NH2)
Outgoing: 12

====

Method Description: Stability of peptides in simulated gastric fluid (pH 1.5; HCl, NaCl and Pepsin)
Type: in vitro ADME
Measurement Context: simulated gi fluid, pH 1.5
Where a SMILES comes first, the peptide text is derived from it. [ ]: non-standard residue; d: D form. ξ: configuration not given here. ξαMePhe(2,6-F2) = CC(N)(Cc1c(F)cccc1F)C(=O)O; ξαMePhe(2-F) = CC(N)(Cc1ccccc1F)C(=O)O; Nle = CCCC[C@H](N)C(=O)O; Aib = CC(C)(N)C(=O)O
Observable: half-life (min)
Answer in min, number only, no unit symbol.

Incoming: # half-life lookup, item CCCC[C@H](NC(=O)C(C)(Cc1ccccc1F)NC(=O)[C@H](CCC(N)=O)NC(=O)[C@@H](NC(=O)[C@H](CCC(=O)O)NC(=O)C(C)(C)NC(=O)[C@@H](NC(=O)C(C)(C)N)C(C)C)[C@@H](C)CC)C(=O)N[C@@H](Cc1c[nH]cn1)C(=O)N[C@@H](CCC(N)=O)C(=O)NC(C)(C)C(=O)NC(C)(C)C(=O)NC(C)(Cc1c(F)cccc1F)C(=O)NC(C)(Cc1ccccc1F)C(N)=O (stereo partly shown) [Seq. ID. 570] (H-[Aib]V[Aib]EIQ[ξαMePhe(2-F)][Nle]HQ[Aib][Aib][ξαMePhe(2,6-F2)][ξαMePhe(2-F)]-NH2)
Outgoing: 30

====

Measured half-life values are reported for all entries that follow.
Method Description: Stability of peptides in human liver microsomes
Type: in vitro ADME
Measurement Context: human, microsomes
Procedure: b) Stability of Peptides in Human Plasma, Simulated Gastric Fluid, Intestinal Fluid and Liver Microsomes (Ex-Vivo): Different short-chain peptides (final concentration 2 μM) were incubated with either pooled human plasma (7.5 μL) or simulated gastric fluid (pH 1.5; composition HCl, NaCl and Pepsin) or simulated intestinal fluid (pH 7.5) or human liver microsomes, for 0, 2, 4, 6, 12 and 24 h (37° C.; 50 mM triethanolamine-HCl buffer; pH 7.8). […]
Where a SMILES comes first, the peptide text is derived from it. [ ]: non-standard residue; d: D form. ξ: configuration not given here. αMePhe(2,6-F2) = C[C@](N)(Cc1c(F)cccc1F)C(=O)O; ξαMePhe(2,6-F2) = CC(N)(Cc1c(F)cccc1F)C(=O)O; αMePhe(2-F) = C[C@](N)(Cc1ccccc1F)C(=O)O; ξαMePhe(2-F) = CC(N)(Cc1ccccc1F)C(=O)O; hArg = N=C(N)NCCCC[C@H](N)C(=O)O; hCit = NC(=O)NCCCC[C@H](N)C(=O)O; Cit = NC(=O)NCCC[C@H](N)C(=O)O; Nle = CCCC[C@H](N)C(=O)O; Ac5c = NC1(C(=O)O)CCCC1; Aib = CC(C)(N)C(=O)O

Incoming: # half-life lookup, item CCCC[C@H](NC(=O)C(C)(Cc1c(F)cccc1F)NC(=O)[C@H](CCC(N)=O)NC(=O)[C@@H](NC(=O)[C@H](CCC(=O)O)NC(=O)C(C)(C)NC(=O)[C@@H](NC(=O)C1(N)CCCC1)C(C)C)[C@@H](C)CC)C(=O)N[C@@H](Cc1c[nH]cn1)C(=O)N[C@@H](CCC(N)=O)C(=O)N[C@@H](CCCCNC(=N)N)C(=O)NC(C)(C)C(=O)NC(C)(Cc1c(F)cccc1F)C(=O)NC(C)(Cc1ccccc1F)C(N)=O (stereo partly shown) [Seq. ID. 220] (H-[Ac5c]V[Aib]EIQ[ξαMePhe(2,6-F2)][Nle]HQ[hArg][Aib][ξαMePhe(2,6-F2)][ξαMePhe(2-F)]-NH2)
Outgoing: 1 h

Incoming: # half-life lookup, item CCCCC(C)(NC(=O)[C@H](CC(C)C)NC(=O)[C@H](CCC(N)=O)NC(=O)[C@@H](NC(=O)[C@H](CCC(=O)O)NC(=O)C(C)(C)NC(=O)[C@@H](NC(=O)C1(NC(=O)[C@@H](N)C(C)C)CCCC1)C(C)C)[C@@H](C)CC)C(=O)N[C@@H](Cc1c[nH]cn1)C(=O)N[C@@H](CCC(N)=O)C(=O)N[C@@H](CCCCNC(=N)N)C(=O)N[C@@H](C)C(=O)N[C@@H](CCCCNC(=N)N)C(=O)NC(Cc1ccc(-c2ccc(OC)cc2CC)cc1)C(=O)NC(C)(CCCc1ccccc1)C(N)=O (single isomer, unassigned)
Outgoing: 0.5 h

Incoming: # half-life lookup, item CCCC[C@H](NC(=O)C(C)(Cc1ccccc1F)NC(=O)[C@H](CCC(N)=O)NC(=O)[C@@H](NC(=O)[C@H](CCC(=O)O)NC(=O)C(C)(C)NC(=O)[C@@H](NC(=O)C1(N)CCCC1)C(C)C)[C@@H](C)CC)C(=O)N[C@@H](Cc1c[nH]cn1)C(=O)N[C@@H](CCC(N)=O)C(=O)N[C@@H](CCCCNC(N)=O)C(=O)N[C@@H](C)C(=O)N[C@@H](CCCNC(N)=O)C(=O)NC(C)(Cc1ccccc1F)C(N)=O (stereo partly shown) [Seq. ID. 411] (H-[Ac5c]V[Aib]EIQ[ξαMePhe(2-F)][Nle]HQ[hCit]A[Cit][ξαMePhe(2-F)]-NH2)
Outgoing: 1 h

---
Incoming: # half-life lookup, item CCCC[C@H](NC(=O)[C@](C)(Cc1ccccc1F)NC(=O)[C@H](CCC(N)=O)NC(=O)[C@@H](NC(=O)[C@H](CCC(=O)O)NC(=O)C(C)(C)NC(=O)[C@@H](NC(=O)C(C)(C)N)C(C)C)[C@@H](C)CC)C(=O)N[C@@H](Cc1c[nH]cn1)C(=O)N[C@@H](CCC(N)=O)C(=O)N[C@@H](CCCCNC(=N)N)C(=O)NC(C)(C)C(=O)N[C@@H](CCCNC(N)=O)C(=O)N[C@@](C)(Cc1c(F)cccc1F)C(N)=O [Seq. ID. 142] (H-[Aib]V[Aib]EIQ[αMePhe(2-F)][Nle]HQ[hArg][Aib][Cit][αMePhe(2,6-F2)]-NH2)
Outgoing: 1 h

These measurements were taken from patent US8383581B2.
